- Test system: human bronchial epithelial cells, CFTR corrector, plate reader
- Assay Name: rescue of ΔF508 CFTR function, airway epithelium – human bronchial epithelial cells, plate reader, cherry-pick, two tests, dose response (AID 743267)
- Protocol Conditions: measured here: test 2 replicate run
Kindly note that classification relies on AC50 with these boundaries: Low: < 3 µM; Medium: ≥ 3 µM and < 8 µM; High: ≥ 8 µM

COc1ccccc1C(=O)NC(=S)/C=C1/N(C)c2ccccc2C1(C)C; High
COc1ccc(-c2cc(C(F)F)n3ncc(C(=O)N4CCc5ccccc54)c3n2)cc1; High
Cc1cccc(Nc2nc(N)nc(-c3oc4ccccc4c3C)n2)c1; Medium
CC[C@H]1CN2CCC1C[C@H]2[C@H](O)c1ccnc2ccc(OC)cc12 (some centres not stated); High
O=C(c1cccc(S(=O)(=O)N2CCOCC2)c1)N1CCCC(C(F)(F)F)C1 (configuration not stated); High
Cc1cccc(NS(=O)(=O)c2ccc(-c3cnc(C4CC4)o3)cc2)c1; Low
Nc1[nH]nc2ncc3cc4ccccc4nc3c12; High
CC(=O)Nc1ccc(S(=O)(=O)Nc2cccc(-c3nc4cc(C)ccc4o3)c2)cc1; High
COc1ccc(C2C3=C(COC3=O)Oc3cc4c(cc32)OCO4)cc1OC (configuration not stated); Medium
CCN(CC)c1ccc(/C=N/NC(=O)c2cnccn2)cc1; Low
COc1cc(OC)c2c(-c3cccc(-c4sccc4C(C)=O)c3)cc(=O)oc2c1; High
Cc1ccc(C(=O)N/N=C/c2cc(Br)ccc2O)cn1; Low
CCN(C(=O)CSc1nc2ccccc2c(=O)n1-c1ccccc1F)C1CCS(=O)(=O)C1 (configuration not stated); Low
C=CCN1C(=O)/C(=C/C=C2/N(CC)c3ccc(S(=O)(=O)N(C)C)cc3N2CC)SC1=S; Medium
Cc1ccc(S(=O)(=O)NCc2ccccc2)cc1C(=O)N1CC(C)CC(C)C1 (configuration not stated); High
CC(=O)N1CCc2cc(S(=O)(=O)N3c4ccccc4CC3C)ccc21 (configuration not stated); Medium
CC1(C(=O)NCc2ccccc2)Cc2c(-c3ccc(C(N)=O)cc3)ccnc2O1 (configuration not stated); Medium
COc1ccc(C(=O)c2cc(OC)c(OC)c(OC)c2)cc1OC; Low
NS(=O)(=O)c1cc(Cl)c(Cl)c(S(N)(=O)=O)c1; Low
COc1cccc(N2CCN(C(=O)c3ccc(CS(=O)c4ccc(C)cc4)o3)CC2)c1 (configuration not stated); Low
